Target sequence: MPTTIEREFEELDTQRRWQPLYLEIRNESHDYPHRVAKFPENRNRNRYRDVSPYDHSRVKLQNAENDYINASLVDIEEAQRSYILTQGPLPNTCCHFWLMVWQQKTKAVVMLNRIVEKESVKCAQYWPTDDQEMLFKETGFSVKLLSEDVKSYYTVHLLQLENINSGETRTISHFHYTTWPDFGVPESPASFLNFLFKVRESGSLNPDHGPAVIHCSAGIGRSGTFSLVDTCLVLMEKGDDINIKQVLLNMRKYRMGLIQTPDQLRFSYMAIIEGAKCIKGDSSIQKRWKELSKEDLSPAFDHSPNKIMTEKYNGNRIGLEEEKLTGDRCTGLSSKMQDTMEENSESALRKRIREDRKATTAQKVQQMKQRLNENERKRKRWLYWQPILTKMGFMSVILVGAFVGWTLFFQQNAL
pIC50: −log10 of the molar value.
Below: a set of entries, each annotated with reported pIC50.

Guide cases for pIC50, answers given:
O=C1CN(c2c(O)ccc(-c3cc(C(F)(F)F)n[nH]3)c2F)S(=O)(=O)N1 [Compound 247]    ≥ 6.00
O=C1CN(c2c(O)ccc(-c3cn(-c4cc(F)cc(F)c4)cn3)c2F)S(=O)(=O)N1 [Compound 265]    ≥ 6.00
CC1(C)C=C(c2ccc(O)c(N3CC(=O)NS3(=O)=O)c2F)CN1 [Compound 519]    < 6.00

Indicate its recorded pIC50; the compound in question is O=C1CN(c2c(O)ccc(-c3cc(O)cc4ccccc34)c2F)S(=O)(=O)N1 [Compound 218]
< 6.00

Indicate its recorded pIC50; the compound in question is O=C1CN(c2c(O)ccc(-c3cccc(NS(=O)(=O)C4CC4)c3)c2F)S(=O)(=O)N1 [Compound 449]
≥ 6.00

Indicate its recorded pIC50; the compound in question is Cc1cc(O)c(N2CC(=O)NS2(=O)=O)cc1-c1cnn(C)c1 [Compound 358]
< 6.00

Indicate its recorded pIC50; the compound in question is O=C1CN(c2c(O)ccc(-c3ccc(NS(=O)(=O)CC4CC4)cc3)c2F)S(=O)(=O)N1 [Compound 231]
≥ 6.00

Indicate its recorded pIC50; the compound in question is CN(C)C(=O)n1cc(-c2ccc(O)c(N3CC(=O)NS3(=O)=O)c2F)cn1 [Compound 532]
≥ 6.00

Indicate its recorded pIC50; the compound in question is CCCN1CCCC(c2ccc(O)c(N3CC(=O)NS3(=O)=O)c2F)C1 (stereo not shown) [Compound 276]
< 6.00

Indicate its recorded pIC50; the compound in question is O=C1CN(c2c(O)ccc(-c3cnn(C4CCOCC4)c3)c2F)S(=O)(=O)N1 [Compound 214]
≥ 6.00
